- testConditions: in toluene, 293.15 K
quantityMeasured: solubility (mole fraction)
Numbers only.

-- ask Bench note: what solubility (mole fraction) did `c1ccc2c(c1)OP1(=NP3(=NP4(=N1)Oc1ccccc1O4)Oc1ccccc1O3)O2` show?
-- reply 0.000667

* * *

- testConditions: in acetone, 313.35 K
quantityMeasured: solubility (mole fraction)
Numbers only.

-- ask Data request, read-out solubility (mole fraction), for `c1ccc2c(c1)OP1(=NP3(=NP4(=N1)Oc1ccccc1O4)Oc1ccccc1O3)O2`
-- reply 0.000759

* * *

- testConditions: in acetonitrile, 328.35 K
quantityMeasured: solubility (mole fraction)
One number for each entry.

-- ask Value lookup for solubility (mole fraction); key = `c1ccc2c(c1)OP1(=NP3(=NP4(=N1)Oc1ccccc1O4)Oc1ccccc1O3)O2`
-- reply 0.000922

* * *

- testConditions: in acetone, 294.35 K
quantityMeasured: solubility (mole fraction)
Answers are plain numbers.

-- ask For the compound `c1ccc2c(c1)OP1(=NP3(=NP4(=N1)Oc1ccccc1O4)Oc1ccccc1O3)O2` , what solubility (mole fraction) is on record?
-- reply 0.00025

* * *

- testConditions: in dichloromethane, 298.35 K
quantityMeasured: solubility (mole fraction)
Numbers only.

-- ask Report solubility (mole fraction) for `c1ccc2c(c1)OP1(=NP3(=NP4(=N1)Oc1ccccc1O4)Oc1ccccc1O3)O2` please.
-- reply 0.00175

* * *

- testConditions: in acetonitrile, 298.15 K
quantityMeasured: solubility (mole fraction)
One number for each entry.

-- ask Given `c1ccc2c(c1)OP1(=NP3(=NP4(=N1)Oc1ccccc1O4)Oc1ccccc1O3)O2` , state its recorded solubility (mole fraction).
-- reply 0.000217

* * *

- testConditions: in THF, 323.15 K
quantityMeasured: solubility (mole fraction)
Give bare numbers.

-- ask Which value of solubility (mole fraction) has been reported for `c1ccc2c(c1)OP1(=NP3(=NP4(=N1)Oc1ccccc1O4)Oc1ccccc1O3)O2` in the records?
-- reply 0.0025

* * *

- testConditions: in THF, 307.95 K
quantityMeasured: solubility (mole fraction)
Give bare numbers.

-- ask Quick check: solubility (mole fraction) of `c1ccc2c(c1)OP1(=NP3(=NP4(=N1)Oc1ccccc1O4)Oc1ccccc1O3)O2` ?
-- reply 0.00159

* * *

- testConditions: in chloroform, 328.75 K
quantityMeasured: solubility (mole fraction)
Give bare numbers.

-- ask Using the record for `c1ccc2c(c1)OP1(=NP3(=NP4(=N1)Oc1ccccc1O4)Oc1ccccc1O3)O2` , report its solubility (mole fraction).
-- reply 0.00771

* * *

- testConditions: in chloroform, 298.15 K
quantityMeasured: solubility (mole fraction)
One number for each entry.

-- ask solubility (mole fraction) lookup needed for `c1ccc2c(c1)OP1(=NP3(=NP4(=N1)Oc1ccccc1O4)Oc1ccccc1O3)O2` , thanks.
-- reply 0.00214

* * *

- testConditions: in ethyl acetate, 303.35 K
quantityMeasured: solubility (mole fraction)
Numbers only.

-- ask Would you mind telling me what solubility (mole fraction) value was observed for `c1ccc2c(c1)OP1(=NP3(=NP4(=N1)Oc1ccccc1O4)Oc1ccccc1O3)O2` ?
-- reply 0.000563

* * *

- testConditions: in toluene, 303.15 K
quantityMeasured: solubility (mole fraction)
Numbers only.

-- ask Tell me the measured solubility (mole fraction) of `c1ccc2c(c1)OP1(=NP3(=NP4(=N1)Oc1ccccc1O4)Oc1ccccc1O3)O2` , please.
-- reply 0.00108

* * *

- testConditions: in acetone, 298.35 K
quantityMeasured: solubility (mole fraction)
Answers are plain numbers.

-- ask Need solubility (mole fraction), item `c1ccc2c(c1)OP1(=NP3(=NP4(=N1)Oc1ccccc1O4)Oc1ccccc1O3)O2`
-- reply 0.000323

* * *

- testConditions: in ethyl acetate, 313.45 K
quantityMeasured: solubility (mole fraction)
One number for each entry.

-- ask Entry `c1ccc2c(c1)OP1(=NP3(=NP4(=N1)Oc1ccccc1O4)Oc1ccccc1O3)O2` : reported solubility (mole fraction) = ?
-- reply 0.000856

* * *

- testConditions: in chloroform, 323.05 K
quantityMeasured: solubility (mole fraction)
One number for each entry.

-- ask Looking for the measured solubility (mole fraction) of `c1ccc2c(c1)OP1(=NP3(=NP4(=N1)Oc1ccccc1O4)Oc1ccccc1O3)O2` , can you help?
-- reply 0.00628

* * *

- testConditions: in 1,2-dichloroethane, 318.55 K
quantityMeasured: solubility (mole fraction)
Answers are plain numbers.

-- ask For the compound shown here, `c1ccc2c(c1)OP1(=NP3(=NP4(=N1)Oc1ccccc1O4)Oc1ccccc1O3)O2` , give the reported solubility (mole fraction).
-- reply 0.00195

* * *

- testConditions: in 1,2-dichloroethane, 298.35 K
quantityMeasured: solubility (mole fraction)
Answers are plain numbers.

-- ask What does the record list as solubility (mole fraction) for `c1ccc2c(c1)OP1(=NP3(=NP4(=N1)Oc1ccccc1O4)Oc1ccccc1O3)O2` ?
-- reply 0.000585

* * *

- testConditions: in acetone, 308.65 K
quantityMeasured: solubility (mole fraction)
Numbers only.

-- ask Requested read-out: solubility (mole fraction). Entry: `c1ccc2c(c1)OP1(=NP3(=NP4(=N1)Oc1ccccc1O4)Oc1ccccc1O3)O2`
-- reply 0.000588

* * *

- testConditions: in 1,2-dichloroethane, 333.15 K
quantityMeasured: solubility (mole fraction)
One number for each entry.

-- ask Which value of solubility (mole fraction) has been reported for `c1ccc2c(c1)OP1(=NP3(=NP4(=N1)Oc1ccccc1O4)Oc1ccccc1O3)O2` in the records?
-- reply 0.00419

* * *

- testConditions: in acetonitrile, 303.25 K
quantityMeasured: solubility (mole fraction)
Numbers only.

-- ask Looking for the measured solubility (mole fraction) of `c1ccc2c(c1)OP1(=NP3(=NP4(=N1)Oc1ccccc1O4)Oc1ccccc1O3)O2` , can you help?
-- reply 0.000289

* * *

- testConditions: in acetonitrile, 323.15 K
quantityMeasured: solubility (mole fraction)
Numbers only.

-- ask Need solubility (mole fraction) of `c1ccc2c(c1)OP1(=NP3(=NP4(=N1)Oc1ccccc1O4)Oc1ccccc1O3)O2` , thanks.
-- reply 0.000743

* * *

- testConditions: in acetonitrile, 313.55 K
quantityMeasured: solubility (mole fraction)
Numbers only.

-- ask So what does the record say about solubility (mole fraction) for `c1ccc2c(c1)OP1(=NP3(=NP4(=N1)Oc1ccccc1O4)Oc1ccccc1O3)O2` ?
-- reply 0.000471

* * *

- testConditions: in 1,2-dichloroethane, 293.25 K
quantityMeasured: solubility (mole fraction)
Numbers only.

-- ask Record request: solubility (mole fraction) value, item `c1ccc2c(c1)OP1(=NP3(=NP4(=N1)Oc1ccccc1O4)Oc1ccccc1O3)O2`
-- reply 0.000409

* * *

- testConditions: in ethanol, 318.15 K
quantityMeasured: solubility (mole fraction)
Answers are plain numbers.

-- ask Looking for the measured solubility (mole fraction) of `c1ccc2c(c1)OP1(=NP3(=NP4(=N1)Oc1ccccc1O4)Oc1ccccc1O3)O2` , can you help?
-- reply 0.000308

* * *

- testConditions: in acetonitrile, 318.25 K
quantityMeasured: solubility (mole fraction)
Numbers only.

-- ask Please look up its solubility (mole fraction): `c1ccc2c(c1)OP1(=NP3(=NP4(=N1)Oc1ccccc1O4)Oc1ccccc1O3)O2`
-- reply 0.000586

* * *

- testConditions: in THF, 313.25 K
quantityMeasured: solubility (mole fraction)

-- ask Query (compound): `c1ccc2c(c1)OP1(=NP3(=NP4(=N1)Oc1ccccc1O4)Oc1ccccc1O3)O2` ; field requested: solubility (mole fraction)
-- reply 0.00188

* * *

- testConditions: in 1,2-dichloroethane, 328.55 K
quantityMeasured: solubility (mole fraction)
One number for each entry.

-- ask Requested field: solubility (mole fraction). Item: `c1ccc2c(c1)OP1(=NP3(=NP4(=N1)Oc1ccccc1O4)Oc1ccccc1O3)O2`
-- reply 0.00324

* * *

- testConditions: in 1,2-dichloroethane, 308.15 K
quantityMeasured: solubility (mole fraction)

-- ask # lookup: solubility (mole fraction) of `c1ccc2c(c1)OP1(=NP3(=NP4(=N1)Oc1ccccc1O4)Oc1ccccc1O3)O2`
-- reply 0.00107

* * *

- testConditions: in acetone, 318.15 K
quantityMeasured: solubility (mole fraction)
Numbers only.

-- ask Requested read-out: solubility (mole fraction). Entry: `c1ccc2c(c1)OP1(=NP3(=NP4(=N1)Oc1ccccc1O4)Oc1ccccc1O3)O2`
-- reply 0.000977

* * *

- testConditions: in THF, 328.25 K
quantityMeasured: solubility (mole fraction)

-- ask // returns reported solubility (mole fraction) for input `c1ccc2c(c1)OP1(=NP3(=NP4(=N1)Oc1ccccc1O4)Oc1ccccc1O3)O2`
-- reply 0.00292

* * *

- testConditions: in dichloromethane, 308.65 K
quantityMeasured: solubility (mole fraction)

-- ask Need solubility (mole fraction), item `c1ccc2c(c1)OP1(=NP3(=NP4(=N1)Oc1ccccc1O4)Oc1ccccc1O3)O2`
-- reply 0.00276

* * *

- testConditions: in ethyl acetate, 323.15 K
quantityMeasured: solubility (mole fraction)
Numbers only.

-- ask Which solubility (mole fraction) reading was recorded for the compound `c1ccc2c(c1)OP1(=NP3(=NP4(=N1)Oc1ccccc1O4)Oc1ccccc1O3)O2` ?
-- reply 0.00133

* * *

- testConditions: in dichloromethane, 288.15 K
quantityMeasured: solubility (mole fraction)
Give bare numbers.

-- ask Given the entry `c1ccc2c(c1)OP1(=NP3(=NP4(=N1)Oc1ccccc1O4)Oc1ccccc1O3)O2` , report its measured solubility (mole fraction).
-- reply 0.00108

Every entry's value here was drawn from BigSolDB 2.1.
